All figures here come from patent US20030148958A1.

Molecular target: T1, CRF2R; further: reference of the scale not given here
T1 sequence (Q13324 whole entry, species assumed, looked up): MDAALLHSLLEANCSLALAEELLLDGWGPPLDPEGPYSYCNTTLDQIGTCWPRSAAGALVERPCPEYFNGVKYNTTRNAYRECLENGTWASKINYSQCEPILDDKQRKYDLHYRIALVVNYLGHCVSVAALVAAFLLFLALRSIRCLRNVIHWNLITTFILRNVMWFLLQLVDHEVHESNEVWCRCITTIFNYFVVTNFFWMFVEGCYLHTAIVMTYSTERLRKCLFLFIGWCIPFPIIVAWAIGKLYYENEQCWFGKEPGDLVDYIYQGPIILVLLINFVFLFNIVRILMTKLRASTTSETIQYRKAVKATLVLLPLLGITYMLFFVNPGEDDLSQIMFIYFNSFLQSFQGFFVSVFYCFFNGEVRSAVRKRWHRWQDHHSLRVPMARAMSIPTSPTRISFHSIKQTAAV
Assay: cell-based or functional assay
Ends that are not written are not given here.
Provide the recorded CRF2R Emax % for the entries that follow.
Answers are plain numbers, in %.

See these solved cases before continuing.
> print(dat)
                                     binder  measurement.name  quantitative.result
1  DNPSLSIDVPFFLLRTLLELEKTQSQRERAEQNARIFARV-NH2 [SEQ ID NO 386]      CRF2R Emax %                   96
2  DNPSLSIDLPLFLLRTLLELARTQSQRERAEQNARIFARV-NH2 [SEQ ID NO 329]      CRF2R Emax %                 98.3

Recorded result, PSLSIDLPLILLRTLLELEKTQSQRERAEQNARIFARV-NH2 [SEQ ID NO 332] , CRF2R Emax %: 100
